Target: RNA-binding protein pos-1 (Caenorhabditis elegans, UniProt G5EF15)
Sequence (G5EF15 whole entry): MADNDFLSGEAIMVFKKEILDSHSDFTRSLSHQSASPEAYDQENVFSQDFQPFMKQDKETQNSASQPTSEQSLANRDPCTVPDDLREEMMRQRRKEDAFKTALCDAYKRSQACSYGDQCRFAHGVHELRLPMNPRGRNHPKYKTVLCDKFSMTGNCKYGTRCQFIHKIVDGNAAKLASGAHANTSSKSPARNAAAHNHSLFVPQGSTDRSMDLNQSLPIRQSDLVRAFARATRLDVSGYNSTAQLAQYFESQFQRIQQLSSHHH
Experiment: disruptors of C. elegans POS-1 RNA interaction – biochemical, fluorescence polarization, dose response (AID 1964);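 further: purified POS-1 fused to maltose binding protein made in E. coli; potency of compounds blocking POS-1 binding to fluorescent RNA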
The source made the active and inactive calls. No stated cut-off is given here; in the data, actives have a measured EC50 and inactives only a lower limit.
Catalogue of compounds with associated EC50
Quantity: EC50

Compound | Target Under Test | Endpoint Value
O=C(O)c1ccccc1-n1cccc1C(=O)O | RNA-binding protein pos-1 (Caenorhabditis elegans, UniProt G5EF15) | > 300 µM (not active)
COC(=O)CCC(=O)OC1(C)C(=O)C=C2C=C(C3CC3)N(c3ccc(CO)cc3)C=C2C1=O (stereo not drawn) | RNA-binding protein pos-1 (Caenorhabditis elegans, UniProt G5EF15) | 25.5 µM (active)
CC(Cc1ccc(O)c(O)c1)C(C)Cc1ccc(O)c(O)c1 (stereo not drawn) [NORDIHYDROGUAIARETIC ACID] | RNA-binding protein pos-1 (Caenorhabditis elegans, UniProt G5EF15) | 26.1 µM (active)

src = ChEMBL document CHEMBL1201862
